Taken from patent US20250289804A1.

targetUnderTest: human C3bBb (Homo sapiens (Human), UniProt P00751)
Sequence (P00751 260-764): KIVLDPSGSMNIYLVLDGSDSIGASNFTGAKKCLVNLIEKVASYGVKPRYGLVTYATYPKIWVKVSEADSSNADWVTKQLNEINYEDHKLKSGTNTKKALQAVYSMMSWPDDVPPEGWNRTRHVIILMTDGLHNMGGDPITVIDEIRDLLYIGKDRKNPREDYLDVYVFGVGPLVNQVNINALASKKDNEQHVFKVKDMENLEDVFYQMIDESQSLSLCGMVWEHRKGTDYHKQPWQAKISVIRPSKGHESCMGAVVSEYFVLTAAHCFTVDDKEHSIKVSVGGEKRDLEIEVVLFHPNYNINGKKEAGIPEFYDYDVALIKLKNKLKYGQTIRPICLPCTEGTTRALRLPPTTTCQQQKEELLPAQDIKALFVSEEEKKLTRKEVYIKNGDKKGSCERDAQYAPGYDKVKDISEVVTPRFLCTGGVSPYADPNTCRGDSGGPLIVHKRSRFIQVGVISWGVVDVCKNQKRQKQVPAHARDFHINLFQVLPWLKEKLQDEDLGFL
Sequence (P01024 23-667 partner): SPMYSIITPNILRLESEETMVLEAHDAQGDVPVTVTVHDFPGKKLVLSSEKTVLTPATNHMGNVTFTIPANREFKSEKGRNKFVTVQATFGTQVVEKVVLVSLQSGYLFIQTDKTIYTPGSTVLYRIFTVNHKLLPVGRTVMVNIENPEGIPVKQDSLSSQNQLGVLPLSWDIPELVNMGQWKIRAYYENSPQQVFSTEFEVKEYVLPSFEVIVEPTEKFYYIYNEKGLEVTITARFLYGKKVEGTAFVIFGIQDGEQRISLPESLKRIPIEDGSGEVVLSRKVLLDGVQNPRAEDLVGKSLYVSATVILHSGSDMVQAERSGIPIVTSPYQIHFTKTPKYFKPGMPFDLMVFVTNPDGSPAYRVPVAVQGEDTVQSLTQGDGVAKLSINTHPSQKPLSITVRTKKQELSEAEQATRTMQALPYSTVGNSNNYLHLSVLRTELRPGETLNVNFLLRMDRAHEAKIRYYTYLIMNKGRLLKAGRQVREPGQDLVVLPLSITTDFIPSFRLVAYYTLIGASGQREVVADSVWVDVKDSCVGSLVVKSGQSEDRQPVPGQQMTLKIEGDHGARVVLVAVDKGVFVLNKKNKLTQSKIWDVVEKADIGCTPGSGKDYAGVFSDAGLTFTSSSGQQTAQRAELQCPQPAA
Sequence (P01024 749-1663 partner): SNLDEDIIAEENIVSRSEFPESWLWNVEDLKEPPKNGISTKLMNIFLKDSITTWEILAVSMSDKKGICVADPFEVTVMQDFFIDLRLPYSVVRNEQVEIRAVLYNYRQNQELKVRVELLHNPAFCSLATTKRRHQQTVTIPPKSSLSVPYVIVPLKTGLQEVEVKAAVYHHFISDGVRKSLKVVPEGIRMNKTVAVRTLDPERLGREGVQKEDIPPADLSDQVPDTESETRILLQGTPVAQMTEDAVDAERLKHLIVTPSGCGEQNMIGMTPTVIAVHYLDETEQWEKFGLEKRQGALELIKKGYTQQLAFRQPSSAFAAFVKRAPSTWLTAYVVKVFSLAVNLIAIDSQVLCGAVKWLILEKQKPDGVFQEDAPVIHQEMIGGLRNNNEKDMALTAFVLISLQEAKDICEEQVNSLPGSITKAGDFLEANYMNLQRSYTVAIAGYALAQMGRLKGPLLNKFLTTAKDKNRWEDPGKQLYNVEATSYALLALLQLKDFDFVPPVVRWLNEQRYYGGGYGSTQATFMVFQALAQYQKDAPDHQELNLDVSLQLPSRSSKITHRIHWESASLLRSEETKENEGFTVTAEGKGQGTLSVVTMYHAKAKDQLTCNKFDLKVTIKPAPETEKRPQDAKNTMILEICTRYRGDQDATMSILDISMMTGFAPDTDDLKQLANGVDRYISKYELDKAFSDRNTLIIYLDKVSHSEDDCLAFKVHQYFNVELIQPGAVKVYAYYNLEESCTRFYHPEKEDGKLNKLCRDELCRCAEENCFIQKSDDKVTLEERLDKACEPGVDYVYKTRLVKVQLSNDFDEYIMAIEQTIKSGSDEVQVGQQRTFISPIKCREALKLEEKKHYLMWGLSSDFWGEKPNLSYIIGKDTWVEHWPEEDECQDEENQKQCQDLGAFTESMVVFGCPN
assayRemarks: Human C3bBb enzyme assay (C3a generation from C3, ELISA)
Format: biochemical
reportedConditions: starred values: assay conducted with 1 nM C3b:Bb enzyme; read-out: Human C3b:Bb IC50 Avg
pIC50: −log10 of the molar value.
propertyName: pIC50

Please look up its pIC50: COc1cc(C)c2[nH]ccc2c1CN1CC[C@@]2(CCCO2)C[C@H]1c1ccc(C(=O)O)cc1 (single isomer, unassigned) [Example 33]
< 7.00

Please look up its pIC50: Cc1cc(C2CC2)c(CN2CC[C@H](N3CC(C(F)(F)F)C3)C[C@H]2c2ccc(C(=O)O)cc2)c2cc[nH]c12 [Example 76]
> 8.00

Please look up its pIC50: COc1cc(C)c2[nH]ccc2c1CN1CC[C@H](N2CC(OC(F)(F)F)C2)C[C@H]1c1ccc(C(=O)O)cc1 [Example 72]
7.30 to 7.60

Please look up its pIC50: COc1cc(C)c2[nH]ccc2c1CN1CC[C@H](C2CCC2)C[C@H]1c1ccc(C(=O)O)cc1 (mixture of isomers) [Example 43]
7.00 to 7.30

Please look up its pIC50: COc1cc(C)c2[nH]ccc2c1CN1CC[C@H](N2CC(C#N)C2)C[C@H]1c1ccc(C(=O)O)cc1 [Example 73]
> 8.00

Please look up its pIC50: COc1cc(C)c2[nH]ccc2c1CN1CC[C@H](CC2CC2)C[C@H]1c1ccc(C(=O)O)cc1 [Example 44]
> 8.00

Please look up its pIC50: COc1cc(C)c2[nH]ccc2c1CN1CC[C@H](NC2CC(F)(F)C2)C[C@H]1c1ccc(C(=O)O)cc1 [Example 24]
7.60 to 8.00

---

targetUnderTest: human C3bBb (Homo sapiens (Human))
assayRemarks: Human C3bBb enzyme assay (C3a generation from C3, ELISA)
Assay type: biochemical
reportedConditions: starred values: assay conducted with 1 nM C3b:Bb enzyme; read-out: Human C3b:Bb IC50 Avg
pIC50: −log10 of the molar value.
propertyName: pIC50

Please look up its pIC50: COc1cc(C)c2[nH]ccc2c1CN1CC[C@H](N2CC(C(F)(F)F)C2)C[C@H]1c1ccc(C(=O)O)cc1 (racemic) [Example 71]
> 8.00

Please look up its pIC50: COc1cc(C)c2[nH]ccc2c1CN1CC[C@H](NCC2(F)CC2)C[C@H]1c1ccc(C(=O)O)cc1
7.00 to 7.30

Please look up its pIC50: COc1cc(C)c2[nH]ccc2c1CN1CCC2(COC2)CC1c1ccc(C(=O)O)cc1 (racemic)
> 8.00

Please look up its pIC50: COc1cc(C)c2[nH]ccc2c1CN1CC[C@]2(C[C@H]1c1ccc(C(=O)O)cc1)C[C@@H](C(F)(F)F)C2 (single isomer, unassigned) [Example 49]
> 8.00

Please look up its pIC50: COc1cc(C)c2[nH]ccc2c1CN1CC[C@]2(C[C@H]1c1ccc(C(=O)O)cc1)C[C@@H](C(F)(F)F)C2 (single isomer, unassigned) [Example 48]
> 8.00

Please look up its pIC50: COc1cc(C)c2[nH]ccc2c1CN1CC[C@]2(CCC(F)(F)C2)C[C@H]1c1ccc(C(=O)O)cc1 (single isomer, unassigned) [Example 36]
> 8.00

Please look up its pIC50: COc1cc(C)c2[nH]ccc2c1CN1CC[C@]2(C[C@H]1c1ccc(C(=O)O)cc1)C[C@@H](OC(F)F)C2 (single isomer, unassigned) [Example 57]
> 8.00

Please look up its pIC50: COc1cc(C)c2[nH]ccc2c1CN1CC[C@H](OCC(F)F)C[C@H]1c1ccc(C(=O)O)cc1
> 8.00

Please look up its pIC50: COc1cc(C)c2[nH]ccc2c1CN1CC[C@H](NCC(F)(F)F)C[C@H]1c1ccc(C(=O)O)cc1
> 8.00

Please look up its pIC50: COc1cc(C)c2[nH]ccc2c1CN1CC[C@H](NC2CC(F)(F)C2)C[C@H]1c1ccc(C(=O)O)cc1 [Example 19]
> 8.00

Please look up its pIC50: COc1cc(C)c2[nH]ccc2c1CN1CC[C@]2(C[C@H]1c1ccc(C(=O)O)cc1)C[C@@H](C#N)C2 (single isomer, unassigned) [Example 55]
> 8.00

Please look up its pIC50: COc1cc(C)c2[nH]cc(Cl)c2c1CN1CC[C@H](N2CC(C(F)(F)F)C2)C[C@H]1c1ccc(C(=O)O)cc1
7.60 to 8.00

Please look up its pIC50: COc1cc(C)c2[nH]ccc2c1CN1CC[C@]2(C[C@H]1c1ccc(C(=O)O)cc1)C[C@@H](F)C2 (single isomer, unassigned) [Example 62]
> 8.00

---

Exercise: for every item that follows, state its recorded pIC50.
targetUnderTest: human C3bBb (Homo sapiens (Human), UniProt P00751)
assayRemarks: Human C3bBb enzyme assay (C3a generation from C3, ELISA)
Type: biochemical
reportedConditions: starred values: assay conducted with 1 nM C3b:Bb enzyme; read-out: Human C3b:Bb IC50 Avg
pIC50: −log10 of the molar value.

Please look up its pIC50: COc1cc(C)c2[nH]ccc2c1CN1CC[C@]2(C[C@H]1c1ccc(C(=O)O)cc1)C[C@@H](O)C2 (stereo in doubt) [Example 64]
7.60 to 8.00

Please look up its pIC50: Cc1cc(C2CC2)c(CN2CC[C@H](NC3CC(F)(F)C3)C[C@H]2c2ccc(C(=O)O)cc2)c2cc[nH]c12 [Example 25]
> 8.00

Please look up its pIC50: COc1cc(C)c2[nH]ccc2c1CN1CC[C@H](CCC(F)(F)F)C[C@H]1c1ccc(C(=O)O)cc1 [Example 42]
> 8.00

Please look up its pIC50: COc1cc(C)c2[nH]ccc2c1CN1CC[C@H](OC2COC2)C[C@H]1c1ccc(C(=O)O)cc1 [Example 82]
7.60 to 8.00

---

targetUnderTest: human C3bBb (Homo sapiens (Human))
assayRemarks: Human C3bBb enzyme assay (C3a generation from C3, ELISA)
Format: biochemical
reportedConditions: 3 nM C3bBb complex, 1 μM human C3, 1 hour room temperature; read-out: Human C3b:Bb IC50 Avg
Exercise: for every item that follows, state its recorded IC50.

So what IC50 did COc1cc(C)c2[nH]ccc2c1CN1CC[C@H](c2ccccc2)C[C@H]1c1ccc(C(=O)O)cc1 (racemic) get with human C3bBb (Homo sapiens (Human))?
> 0.1 µM

So what IC50 did COc1cc(C)c2[nH]ccc2c1CN1CC[C@H](n2cccn2)C[C@H]1c1ccc(C(=O)O)cc1 (racemic) get with human C3bBb (Homo sapiens (Human))?
> 0.1 µM

So what IC50 did COc1cc(C)c2[nH]ccc2c1CN1CC[C@H](NCC(F)(F)F)C[C@H]1c1ccc(C(=O)O)cc1 (racemic) get with human C3bBb (Homo sapiens (Human))?
0.01 to 0.025 µM

So what IC50 did COc1cc(C)c2[nH]ccc2c1CN1CC[C@@H](OC(F)F)C[C@@H]1c1ccc(C(=O)O)cc1 get with human C3bBb (Homo sapiens (Human))?
> 0.1 µM

So what IC50 did COc1cc(C)c2[nH]ccc2c1CN1CC[C@H](n2cc(F)cn2)C[C@H]1c1ccc(C(=O)O)cc1 get with human C3bBb (Homo sapiens (Human))?
0.05 to 0.1 µM

So what IC50 did COc1cc(C)c2[nH]ccc2c1CN1CC[C@H](n2cc(C(F)(F)F)cn2)C[C@H]1c1ccc(C(=O)O)cc1 get with human C3bBb (Homo sapiens (Human))?
< 0.01 µM

So what IC50 did COc1cc(C)c2[nH]ccc2c1CN1CC[C@H](NC2COC2)C[C@H]1c1ccc(C(=O)O)cc1 (racemic) get with human C3bBb (Homo sapiens (Human))?
0.01 to 0.025 µM

So what IC50 did COc1cc(C)c2[nH]ccc2c1CN1CC2(CCC2)[C@H]1c1ccc(C(=O)O)cc1 get with human C3bBb (Homo sapiens (Human))?
> 0.1 µM

So what IC50 did COc1cc(C)c2[nH]ccc2c1CN1CC[C@H](NC23CC(C2)C3)C[C@H]1c1ccc(C(=O)O)cc1 get with human C3bBb (Homo sapiens (Human))?
> 0.1 µM

So what IC50 did COc1cc(C)c2[nH]ccc2c1CN1CC[C@H](NC2CCC2)C[C@H]1c1ccc(C(=O)O)cc1 get with human C3bBb (Homo sapiens (Human))?
0.025 to 0.05 µM

So what IC50 did COc1cc(C)c2[nH]ccc2c1CN1CC[C@H](n2cncn2)C[C@H]1c1ccc(C(=O)O)cc1 (racemic) get with human C3bBb (Homo sapiens (Human))?
0.01 to 0.025 µM

So what IC50 did COc1cc(C)c2[nH]ccc2c1CN1CC[C@H](n2cc(S(C)(=O)=O)cn2)C[C@H]1c1ccc(C(=O)O)cc1 (racemic) get with human C3bBb (Homo sapiens (Human))?
> 0.1 µM

So what IC50 did COc1cc(C)c2[nH]ccc2c1CN1CC[C@H](c2ccccn2)C[C@H]1c1ccc(C(=O)O)cc1 get with human C3bBb (Homo sapiens (Human))?
0.05 to 0.1 µM

So what IC50 did COc1cc(C)c2[nH]ccc2c1CN1CC[C@H](NS(N)(=O)=O)C[C@H]1c1ccc(C(=O)O)cc1 (racemic) get with human C3bBb (Homo sapiens (Human))?
> 0.1 µM

So what IC50 did COc1cc(C)c2[nH]ccc2c1CN1CC[C@H](n2cc(C#N)cn2)C[C@H]1c1ccc(C(=O)O)cc1 get with human C3bBb (Homo sapiens (Human))?
0.05 to 0.1 µM

So what IC50 did COc1cc(C)c2[nH]ccc2c1CN1CC2(CCCC2)C1c1ccc(C(=O)O)cc1 (racemic) get with human C3bBb (Homo sapiens (Human))?
> 0.1 µM

So what IC50 did COc1cc(C)c2[nH]ccc2c1CN1CC[C@H](n2cc(Br)cn2)C[C@H]1c1ccc(C(=O)O)cc1 (racemic) get with human C3bBb (Homo sapiens (Human))?
0.05 to 0.1 µM
